Test system: SK-MEL-5 melanoma
Assay: NCI tumour cell line growth inhibition, 48 h
observable: TGI

>  <smiles entry>
Cc1cnc2[nH]c(-c3ccc4ccccc4c3)cc(=O)c2c1

>  <target or test system>
SK-MEL-5 melanoma

>  <observable>
TGI

>  <result>
> 100 µM

$$$$
>  <smiles entry>
O=C(c1ccccc1)N1C(=S)N(c2ccccn2)C(=Nc2ccccc2)C1=Nc1ccccc1

>  <target or test system>
SK-MEL-5 melanoma

>  <observable>
TGI

>  <result>
> 50 µM

$$$$
>  <smiles entry>
CC[C@@]1(O)C(=O)OCc2c1cc1n(c2=O)Cc2c-1nc1ccccc1c2/C=N/NC(=O)c1ccc(N)cc1

>  <target or test system>
SK-MEL-5 melanoma

>  <observable>
TGI

>  <result>
1.1 µM

$$$$
>  <smiles entry>
O=C(N/C(=C\c1ccc(/C=C(\NC(=O)c2ccccc2)c2nc3ccccc3[nH]2)cc1)c1nc2ccccc2[nH]1)c1ccccc1

>  <target or test system>
SK-MEL-5 melanoma

>  <observable>
TGI

>  <result>
> 100 µM

$$$$
>  <smiles entry>
COC(=O)c1cc2ccccc2c2c3c(ccc12)OCO3

>  <target or test system>
SK-MEL-5 melanoma

>  <observable>
TGI

>  <result>
> 1000 µM

$$$$

Just for reference, PubChem BioAssay (NCI) is where these values come from.
